- EXPERIMENT NOTES: polyglutamine aggregate formation blockers (AID 1604)
- RUN PARAMETERS: polyglutamine-induced protein aggregation inhibition assay; stronger effect = higher value; tested at 2.5 µM
# reported inhibition of aggregation; entries follow

- MOLECULE: "Cc1onc(-c2ccccc2Cl)c1C(=O)N[C@@H]1C(=O)N2[C@@H]1SC(C)(C)[C@@H]2C(=O)O"
  UNIT NAME: "%"
  inhibition of aggregation: 77
- MOLECULE: "CC(=O)OCC(COC(C)=O)OC(C)=O"
  UNIT NAME: "%"
  inhibition of aggregation: 72.7
- MOLECULE: "O=C(O)CCC(=O)Nc1ccc(S(=O)(=O)Nc2nccs2)cc1"
  UNIT NAME: "%"
  inhibition of aggregation: 100
- MOLECULE: "NCCCC[C@H](N[C@@H](CCc1ccccc1)C(=O)O)C(=O)N1CCC[C@H]1C(=O)O"
  UNIT NAME: "%"
  inhibition of aggregation: 45.6
- MOLECULE: "CO[C@@]1(NC(=O)C(C(=O)O)c2ccc(O)cc2)C(=O)N2C(C(=O)O)=C(CSc3nnnn3C)CO[C@@H]21 (stereo not given in full)"
  UNIT NAME: "%"
  inhibition of aggregation: 72.2
